target: T1, recombinant conformational HCV E2 antigen (HCV genotype 1a) (hepatitis C virus, HCV1 (genotype 1a), UniProt P26664 383-715); experiment: inhibition ELISA: coated E2 1a, soluble E2 as inhibitor
T1 construct: range 383-715; also called CHO E2; E2 1a
T1 sequence (P26664 383-715): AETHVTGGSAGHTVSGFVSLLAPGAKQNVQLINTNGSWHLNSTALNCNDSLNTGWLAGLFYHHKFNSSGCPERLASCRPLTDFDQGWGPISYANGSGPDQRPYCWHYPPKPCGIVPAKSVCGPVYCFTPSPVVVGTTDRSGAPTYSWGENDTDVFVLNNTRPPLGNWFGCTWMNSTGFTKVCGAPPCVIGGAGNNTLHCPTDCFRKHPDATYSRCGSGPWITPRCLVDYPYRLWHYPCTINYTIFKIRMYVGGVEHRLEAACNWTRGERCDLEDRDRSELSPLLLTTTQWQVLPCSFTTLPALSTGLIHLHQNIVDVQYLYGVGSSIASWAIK
reported_metric: Ka

Entry Fab molecule clone L1 (Fab, V domains shown, also called Ll) VH: EVQLLESGGGVVQPGRSLRLSCAASGFTFSAYGMHWVRQAPGKGLEWVAGIWFDGSNQYYSDSVKGRFTVSRDNSRNTLFLQMNSLRPEDTAVYYCATEVLFGSIKGRYYLENWGQGTLVTVSS VL: AELTQSPGTLSLSVGERATLSCRASQNIYSGYLGWYQQKPGQPPRLLIYGASNRATGIPDRFSGSGSGTDFTLTISRLESEDFAVYYCQQYGSPPYTFGQGTKVEIK , Ka reported as ~4e+07 M⁻¹

Source: patent US6747136
